Reference source: patent US20250213558A1

- target or test system: Human Cav3.1 calcium channel (Homo sapiens)
- Construct: expressed in transfected cells; host or cells: HEK-293 natClytin/TASK1+Cav3.1 cell line
- assay text: Human Cav3.1 calcium channel patch clamp assay (SyncroPatch 384PE; single point and IC50, voltage dependent block)
- Format: cell-based
- condition label: voltage dependent block (VDB); HEK-293 natClytin/TASK1+Cav3.1 cell line; read-out: Cav3.1 IC50
outcome measure: IC50 (nM)
Expressed in nM, but write only the number.

For `Fc1ccc(Cl)c2nc(CN3CCN(CC(F)(F)C4CCCC4)CC3)[nH]c12` , what is its reported IC50?
671

For `CC(C)(C)NC(=O)CN1CCN(CC(=O)Nc2noc3ccccc23)CC1` , what is its reported IC50?
316

For `Fc1cc(Cl)c2nc(CN3CCN(Cc4cccc(Cl)c4)CC3)[nH]c2c1` , what is its reported IC50?
490

For CC(C)(NC(=O)CN1CC2CC1CN2Cc1nc2c(Cl)cc(F)cc2[nH]1)C(F)(F)F (stereo not shown) , what is its reported IC50?
156

* * *

- target or test system: Human Cav3.1 calcium channel (Homo sapiens, UniProt O43497)
- Construct: expressed in transfected cells; host or cells: HEK-293 natClytin/TASK1+Cav3.1 cell line
- Sequence (O43497 whole entry): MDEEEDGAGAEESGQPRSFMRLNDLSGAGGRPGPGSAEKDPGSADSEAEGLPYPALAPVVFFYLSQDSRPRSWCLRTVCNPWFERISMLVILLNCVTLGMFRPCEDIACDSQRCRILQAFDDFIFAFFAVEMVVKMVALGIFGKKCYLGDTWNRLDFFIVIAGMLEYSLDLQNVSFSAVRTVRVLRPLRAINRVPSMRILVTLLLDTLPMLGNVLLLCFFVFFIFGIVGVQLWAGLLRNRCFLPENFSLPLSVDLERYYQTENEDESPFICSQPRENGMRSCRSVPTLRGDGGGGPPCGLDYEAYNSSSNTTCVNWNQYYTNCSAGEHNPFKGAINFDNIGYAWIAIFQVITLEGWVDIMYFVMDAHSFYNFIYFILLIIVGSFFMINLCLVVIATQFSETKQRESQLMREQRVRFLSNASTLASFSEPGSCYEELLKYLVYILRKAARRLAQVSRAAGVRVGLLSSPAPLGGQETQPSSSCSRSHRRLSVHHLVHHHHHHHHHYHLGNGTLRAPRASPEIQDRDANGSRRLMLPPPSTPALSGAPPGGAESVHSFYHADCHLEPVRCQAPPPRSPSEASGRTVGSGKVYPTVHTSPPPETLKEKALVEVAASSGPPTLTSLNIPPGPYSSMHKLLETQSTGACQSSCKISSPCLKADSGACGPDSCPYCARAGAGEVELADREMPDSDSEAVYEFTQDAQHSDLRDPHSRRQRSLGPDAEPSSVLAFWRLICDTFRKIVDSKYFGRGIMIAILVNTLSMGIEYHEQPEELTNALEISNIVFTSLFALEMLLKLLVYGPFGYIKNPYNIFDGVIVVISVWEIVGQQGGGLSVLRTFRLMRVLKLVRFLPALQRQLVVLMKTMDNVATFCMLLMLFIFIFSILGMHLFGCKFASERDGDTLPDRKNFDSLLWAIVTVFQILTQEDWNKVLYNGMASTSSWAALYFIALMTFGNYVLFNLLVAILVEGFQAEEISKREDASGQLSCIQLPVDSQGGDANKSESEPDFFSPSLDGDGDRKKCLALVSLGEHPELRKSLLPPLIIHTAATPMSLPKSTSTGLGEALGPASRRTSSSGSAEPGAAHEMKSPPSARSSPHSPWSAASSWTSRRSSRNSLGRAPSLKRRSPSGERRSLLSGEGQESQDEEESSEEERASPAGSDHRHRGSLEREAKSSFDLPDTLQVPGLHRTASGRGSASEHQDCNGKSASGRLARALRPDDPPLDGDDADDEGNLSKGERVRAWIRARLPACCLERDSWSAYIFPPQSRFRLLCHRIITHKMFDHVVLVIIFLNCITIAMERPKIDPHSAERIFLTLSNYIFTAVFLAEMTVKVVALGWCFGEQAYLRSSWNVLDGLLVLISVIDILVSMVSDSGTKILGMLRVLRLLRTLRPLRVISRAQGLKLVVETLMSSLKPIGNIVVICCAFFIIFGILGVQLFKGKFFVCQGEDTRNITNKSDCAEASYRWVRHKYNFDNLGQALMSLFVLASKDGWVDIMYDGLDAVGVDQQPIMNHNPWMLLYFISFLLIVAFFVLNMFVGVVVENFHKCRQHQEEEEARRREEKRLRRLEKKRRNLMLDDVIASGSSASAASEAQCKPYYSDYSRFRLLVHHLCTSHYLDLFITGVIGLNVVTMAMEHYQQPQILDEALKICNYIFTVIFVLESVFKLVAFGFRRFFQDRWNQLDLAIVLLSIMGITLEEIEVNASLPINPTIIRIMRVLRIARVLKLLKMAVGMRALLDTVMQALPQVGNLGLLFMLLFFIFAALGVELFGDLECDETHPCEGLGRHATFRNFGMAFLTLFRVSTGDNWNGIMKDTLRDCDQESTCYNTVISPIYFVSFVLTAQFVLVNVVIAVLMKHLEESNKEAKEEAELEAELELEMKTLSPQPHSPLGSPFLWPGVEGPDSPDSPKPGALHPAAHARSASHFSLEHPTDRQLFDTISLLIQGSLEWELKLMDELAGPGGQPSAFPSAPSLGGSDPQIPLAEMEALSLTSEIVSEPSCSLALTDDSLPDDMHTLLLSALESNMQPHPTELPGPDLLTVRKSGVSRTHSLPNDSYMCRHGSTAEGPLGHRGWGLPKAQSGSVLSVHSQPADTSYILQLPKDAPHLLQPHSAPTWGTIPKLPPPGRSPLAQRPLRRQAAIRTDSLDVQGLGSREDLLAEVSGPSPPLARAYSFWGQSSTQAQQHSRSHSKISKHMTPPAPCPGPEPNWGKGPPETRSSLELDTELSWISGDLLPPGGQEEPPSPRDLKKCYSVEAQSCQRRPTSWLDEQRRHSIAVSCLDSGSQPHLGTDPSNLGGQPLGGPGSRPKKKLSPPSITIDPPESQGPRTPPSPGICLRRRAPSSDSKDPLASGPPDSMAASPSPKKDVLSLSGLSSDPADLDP
- assay text: Human Cav3.1 calcium channel patch clamp assay (SyncroPatch 384PE; single point and IC50, voltage dependent block)
- Format: cell-based
- condition label: Testing Conc 1.25; HEK-293 natClytin/TASK1+Cav3.1 cell line, patch clamp
For each of the molecules below, state its % Inhibition (Single Point Data).
Expressed in %, but write only the number.

For O[C@H]1CC[C@H](OCCN2C3CC2CN(Cc2nc4c(Cl)cc(F)cc4[nH]2)C3)CC1 [Compound 133] , what is its reported % Inhibition (Single Point Data)?
72.888

For COc1cc(NC(=O)CN2CC3CC(C2)N3CC(=O)NC2(C(F)(F)F)CC2)ccc1F [Compound 257] , what is its reported % Inhibition (Single Point Data)?
89.324

For O=C(CN1CC2CC(C1)N2CC(=O)NC1(C(F)(F)F)CC1)Nc1ccc(F)c(C(F)(F)F)c1 [Compound 251] , what is its reported % Inhibition (Single Point Data)?
80.59

For OC(CN1C2CC1CN(Cc1nc3c(Cl)cc(F)cc3[nH]1)C2)C1CCCCC1 (centres unmarked) [Compound 147] , what is its reported % Inhibition (Single Point Data)?
99.075

For O=C(CN1CC2CC1CN2CC(=O)NC1(C(F)(F)F)CC1)Nc1cc(F)cc(Cl)c1 (centres unmarked) [Compound 223] , what is its reported % Inhibition (Single Point Data)?
75.83

For CC(C)Cc1cc(CNC(=O)CN2CCN(CC(=O)NC(C)(C)C)CC2)nn1-c1ccccc1 [Compound 1] , what is its reported % Inhibition (Single Point Data)?
27.978

For CC(c1nc2c(Cl)cc(F)cc2[nH]1)N1CC2CCC(C1)N2CC(=O)NC(C)(C)C (centres unmarked) [Compound 201] , what is its reported % Inhibition (Single Point Data)?
95.763

For CC(C(=O)NC(C)(C)C)N1C2CC1CN(CC(=O)Nc1ccc(F)c(Cl)c1)C2 (centres unmarked) [Compound 260] , what is its reported % Inhibition (Single Point Data)?
80.656
